# Experimental protocol: in vitro
# Type: cell-based
# Recorded conditions: human; 50% reduction of firefly luciferase expression, 3 days incubation; read-out: Replicon CC50
# Experimental: Cell-based antiviral activity was evaluated in the previously described HCV dual reporter subgenomic replicon system (the '075 application). With this system, the effects of a compound on both HCV replication and cell viability can be simultaneously determined by measuring the intracellular levels of two separate reporter proteins. […]
Property label: CC50 at 3 days (µM)
Give just the number in µM; leave the unit off.

A selection of reference data follows.
O=C(N[C@H]1CCCCC/C=C\[C@@H]2C[C@@]2(C(=O)O)NC(=O)[C@@H]2C[C@@H](Oc3nc(-c4ccccn4)nc4sccc34)CN2C1=O)OC1CCCC1 = 117
Cc1cc(-c2nc(O[C@@H]3C[C@H]4C(=O)N[C@]5(C(=O)O)C[C@H]5/C=C\CCCCC[C@H](NC(=O)OC5CCCC5)C(=O)N4C3)c3sccc3n2)n(C)n1 = 216
Cc1cc(-c2nc(O[C@@H]3C[C@H]4C(=O)N[C@]5(C(=O)O)C[C@H]5/C=C\CCCCC[C@H](NC(=O)OC(C)(C)C)C(=O)N4C3)c3sccc3n2)n(C)n1 = 244

Param item = CC(C)(C)OC(=O)N[C@H]1CCCCC/C=C\[C@@H]2C[C@@]2(C(=O)O)NC(=O)[C@@H]2C[C@@H](Oc3cc(-c4ccccn4)nc4ccsc34)CN2C1=O ; retrieve measured CC50 at 3 days.
92

###

# Experimental target: full-length NS3-NS4A enzyme (Hepatitis C virus genotype 1a)
# Construct: 3 nM full-length NS3-NS4A enzyme
# Sequence (P27958 1027-1657): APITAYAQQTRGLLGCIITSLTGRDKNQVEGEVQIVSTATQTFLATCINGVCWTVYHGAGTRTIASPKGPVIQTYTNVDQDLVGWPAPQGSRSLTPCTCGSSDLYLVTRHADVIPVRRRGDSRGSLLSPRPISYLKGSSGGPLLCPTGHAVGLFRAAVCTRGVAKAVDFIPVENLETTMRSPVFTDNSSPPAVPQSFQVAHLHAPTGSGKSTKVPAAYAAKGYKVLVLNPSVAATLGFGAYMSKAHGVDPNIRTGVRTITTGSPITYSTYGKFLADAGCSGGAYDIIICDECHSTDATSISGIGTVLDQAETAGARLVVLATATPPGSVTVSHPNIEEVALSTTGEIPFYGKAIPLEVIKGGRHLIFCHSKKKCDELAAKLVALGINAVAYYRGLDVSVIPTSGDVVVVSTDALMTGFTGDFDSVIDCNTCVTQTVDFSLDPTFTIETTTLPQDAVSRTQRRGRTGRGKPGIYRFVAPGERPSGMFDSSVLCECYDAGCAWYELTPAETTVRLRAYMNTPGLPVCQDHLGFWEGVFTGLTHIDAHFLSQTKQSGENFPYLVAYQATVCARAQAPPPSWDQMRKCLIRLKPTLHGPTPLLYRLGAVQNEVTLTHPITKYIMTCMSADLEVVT
# Sequence (P27958 1658-1711): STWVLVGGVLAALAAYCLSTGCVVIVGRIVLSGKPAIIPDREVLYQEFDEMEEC
# Experimental protocol: HCV protease assay (continuous FRET, full-length enzyme)
# Assay type: biochemical
# Recorded conditions: 3 nM full-length NS3-NS4A, 3 uM depsipeptide FRET substrate S1; competitive inhibition fit
Property label: pKi
Bear in mind: pKi is minus log10 of a mol/L concentration; give just that figure.

O=C(CC1CC1)N[C@H]1CCCCC/C=C\[C@@H]2C[C@@]2(C(=O)O)NC(=O)[C@@H]2C[C@@H](Oc3cc(-c4ccccn4)nc4ccsc34)CN2C1=O = 7.96

Param item = O=C(N[C@H]1CCCCC/C=C\[C@@H]2C[C@@]2(C(=O)O)NC(=O)[C@@H]2C[C@@H](Oc3nc(-c4ccccn4)nc4sccc34)CN2C1=O)OC1CCC1 ; retrieve measured pKi.
7.68

Same again, this time with O=C(N[C@H]1CCCCC/C=C\[C@@H]2C[C@@]2(C(=O)O)NC(=O)[C@@H]2C[C@@H](Oc3cc(-c4ccccn4)nc4ccsc34)CN2C1=O)OC1CCCC1
8.18

Same again, this time with Cc1cc(-c2nc(O[C@@H]3C[C@H]4C(=O)N[C@]5(C(=O)O)C[C@H]5/C=C\CCCCC[C@H](NC(=O)CC5CC5)C(=O)N4C3)c3sccc3n2)n(C)n1
8.09

###

# Experimental protocol: in vitro
# Type: cell-based
# Recorded conditions: human; 50% reduction of firefly luciferase expression, 3 days incubation; read-out: Replicon CC50
Property label: CC50 at 3 days (µM)
Give just the number in µM; leave the unit off.

O=C(N[C@H]1CCCCC/C=C\[C@@H]2C[C@@]2(C(=O)O)NC(=O)[C@@H]2C[C@@H](Oc3nc(-c4ccccn4)nc4sccc34)CN2C1=O)OC1CCC1 [Example 28] = 59

Param item = O=C(CC1CC1)N[C@H]1CCCCC/C=C\[C@@H]2C[C@@]2(C(=O)O)NC(=O)[C@@H]2C[C@@H](Oc3cc(-c4ccccn4)nc4ccsc34)CN2C1=O [Example 16] ; retrieve measured CC50 at 3 days.
251

Same again, this time with Cc1cc(-c2nc(O[C@@H]3C[C@H]4C(=O)N[C@]5(C(=O)O)C[C@H]5/C=C\CCCCC[C@H](NC(=O)OC5CCC5)C(=O)N4C3)c3sccc3n2)n(C)n1 [Example 60]
222
